Tested on: human Pan T cells
Experiment: Human Pan T cell IL-2 ELISA
Format: cell-based
Settings: Homo sapiens, T-cell, 48 h, Anti-CD3 and Anti-CD28, supernatant IL-2 ELISA, read-out: IL-2 release, EC50
property name: pEC50
Numbers only, as −log10 of the molar value.

Below are worked cases with known answers.
{"compound": "Cn1c(-c2cc3c(c4c2CNC4=O)Nc2ccc(N4CCOC(C(C)(C)O)C4)cc2C3(C)C)cnc1C1CCOCC1 (single isomer, unassigned)", "pEC50": 7.06}
{"compound": "CC1(C)c2cc(N3CCOCC3)ccc2Nc2c1cc(-c1cnc3c(F)c(C#N)ccn13)c1c2C(=O)NC1", "pEC50": 8.28}
{"compound": "CC1(C)c2cc(N3CCOC(C(C)(C)O)C3)ccc2Nc2c1cc(-c1cnc3cccnn13)c1c2C(=O)NC1 (centres unmarked)", "pEC50": 8.68}
{"compound": "CC1(C)c2cc(N3CCOCC3)ccc2Nc2c1cc(-c1cnc3ncccn13)c1c2C(=O)NC1", "pEC50": 8.51}
{"compound": "CN1CCN(c2ccc3c(c2)C(C)(C)c2cc(-c4cnn5cccnc45)c4c(c2N3)C(=O)NC4)C(=O)C1", "pEC50": 7.39}
{"compound": "CC1(C)c2cc(N3CCOCC3)ccc2Nc2c1cc(-c1nnc3n1CCCC3)c1c2C(=O)NC1", "pEC50": 7.16}

Lab note: each compound below needs its pEC50 filled in.
1. Cc1ncc(-c2cc3c(c4c2CNC4=O)Nc2ccc(N4CCOCC4)cc2C3(C)C)n1C
2. COC1CCCn2c(-c3cc4c(c5c3CNC5=O)Nc3ccc(N5CCOC(C(C)(C)O)C5)cc3C4(C)C)cnc21 (single isomer, unassigned) [Example 132]

8.05
8.00

Lab note: each compound below needs its pEC50 filled in.
1. CC1(C)c2cc(NC(=O)CC3CC3)ccc2Nc2c1cc(-c1cnn3cccnc13)c1c2C(=O)NC1
2. CC1(C)c2cc(N3CCOCC3)ccc2Nc2c1cc(-c1cnc3n1CCCC3OC1COC1)c1c2C(=O)NC1 (single isomer, unassigned)
3. COC1CCCn2c(-c3cc4c(c5c3CNC5=O)Nc3ccc(N5CCOC(C(C)(C)O)C5)cc3C4(C)C)cnc21 (centres unmarked) [Example 102]

7.55
7.30
7.97

----------
Test system: human Pan T cells
Test: Human Pan T cell IL-2 ELISA
Assay type: cell-based
Details: Homo sapiens, T-cell, 48 h, Anti-CD3 and Anti-CD28, supernatant IL-2 ELISA, read-out: IL-2 release, EC50
Kindly apply the following: 1.0 if EC50 is less than 20 nM, 0.0 in every other case.

For this compound, is EC50 lower than 20 nM? CNc1cncc(-c2cc3c(c4c2CNC4=O)Nc2ccc(N4CCOCC4)cc2C3(C)C)c1
0.0

----------
System: human Pan T cells
Assay: Human Pan T cell IL-2 ELISA
Type: cell-based
Settings: Homo sapiens, T-cell, 48 h, Anti-CD3 and Anti-CD28, supernatant IL-2 ELISA, read-out: IL-2 release, EC50
Experimental: A compound was dissolved in DMSO to 10 mM, and then diluted three-fold with DMSO to 9 dosages in a 96-well plate. […] The assay was conducted in a 96-well plate. […] On the second day of the assay, human Pan T cells were recovered, centrifuged and counted. […] The signal value of light absorption was converted into a multiple. […] The average value of control wells refers to the value measured in wells with DMSO added. EC50 values were calculated by XLFit (version 5.3.1.3) in Excel. […]
Record form. Attribute: pEC50. Fill in for each entry.
One number for each entry, as −log10 of the molar value.

Below are worked cases with known answers.
{"molecule": "CCOC1CCCn2c(-c3cc4c(c5c3CCNC5=O)Nc3ccc(N5CCOCC5)cc3C4(C)C)cnc21 (single isomer, unassigned) [Example 281]", "reading": 7.74}
{"molecule": "CCc1nccn2c(-c3cc4c(c5c3CNC5=O)Nc3ccc(N5CCOCC5)cc3C4(C)C)cnc12 [Example 164]", "reading": 7.77}
{"molecule": "Cn1ncc2c(-c3cc4c(c5c3CNC5=O)Nc3ccc(N5CCOC(C(C)(C)O)C5)cc3C4(C)C)cncc21 (single isomer, unassigned) [Example 146]", "reading": 8.24}

Lab note: each molecule below needs its pEC50 filled in.
1. CC1(C)c2cc(N3CCOCC3)ccc2Nc2c1cc(-c1cnn3c1CCCC3)c1c2C(=O)NC1 [Example 36]
2. CC1(C)c2cc(N3CCOCC3)c(C(F)F)cc2Nc2c1cc(-c1cnn3cccnc13)c1c2C(=O)NC1 [Example 73]

8.20
7.54

Lab note: each molecule below needs its pEC50 filled in.
1. COC1CCCn2c(-c3cc4c(c5c3CNC5=O)Nc3ccc(N5CCOCC5C)cc3C4(C)C)cnc21 (single isomer, unassigned) [Example 155]
2. COc1nccn2c(-c3cc4c(c5c3CNC5=O)Nc3ccc(C5CNC(=O)C5)cc3C4(C)C)cnc12 (centres unmarked) [Example 255]
3. Cc1ccnc2c(-c3cc4c(c5c3CNC5=O)Nc3ccc(N5CCOCC5)cc3C4(C)C)cnn12 [Example 60]

7.57
8.30
7.75
